Give inhibition at 4 µM for every item shown.
- TEST_TARGET: AC1 (Homo sapiens, UniProt Q08828)
- Construct: expressed in transfected cells
- Sequence (Q08828 whole entry): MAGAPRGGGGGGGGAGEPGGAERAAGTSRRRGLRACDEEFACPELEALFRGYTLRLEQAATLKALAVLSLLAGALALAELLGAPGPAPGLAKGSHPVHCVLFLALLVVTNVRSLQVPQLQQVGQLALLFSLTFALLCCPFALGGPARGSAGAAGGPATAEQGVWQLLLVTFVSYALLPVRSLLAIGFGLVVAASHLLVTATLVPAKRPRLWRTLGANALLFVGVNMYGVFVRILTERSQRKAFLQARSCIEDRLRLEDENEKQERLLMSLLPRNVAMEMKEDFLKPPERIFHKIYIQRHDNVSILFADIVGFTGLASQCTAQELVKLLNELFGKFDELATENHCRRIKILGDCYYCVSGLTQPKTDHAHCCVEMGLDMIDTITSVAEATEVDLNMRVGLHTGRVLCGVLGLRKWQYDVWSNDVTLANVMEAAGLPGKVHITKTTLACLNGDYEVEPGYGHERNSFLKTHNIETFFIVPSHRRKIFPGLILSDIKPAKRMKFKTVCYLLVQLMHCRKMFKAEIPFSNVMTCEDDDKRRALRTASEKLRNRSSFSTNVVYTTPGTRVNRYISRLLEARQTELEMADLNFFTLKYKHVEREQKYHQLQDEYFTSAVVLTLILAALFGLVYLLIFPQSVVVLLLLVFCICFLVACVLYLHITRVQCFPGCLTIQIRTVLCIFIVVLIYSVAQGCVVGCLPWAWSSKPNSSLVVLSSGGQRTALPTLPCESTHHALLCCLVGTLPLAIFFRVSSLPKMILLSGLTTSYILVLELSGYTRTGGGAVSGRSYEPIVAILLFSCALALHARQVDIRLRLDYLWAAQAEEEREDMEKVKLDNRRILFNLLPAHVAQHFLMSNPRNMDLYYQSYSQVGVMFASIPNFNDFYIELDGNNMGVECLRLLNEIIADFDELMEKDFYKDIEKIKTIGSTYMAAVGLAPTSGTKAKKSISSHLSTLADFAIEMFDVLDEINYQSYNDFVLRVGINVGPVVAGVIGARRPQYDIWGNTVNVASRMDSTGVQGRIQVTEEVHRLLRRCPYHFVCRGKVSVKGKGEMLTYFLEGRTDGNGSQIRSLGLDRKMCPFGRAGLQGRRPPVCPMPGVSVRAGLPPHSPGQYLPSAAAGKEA
- MEASUREMENT_DESCRIPTION: Inhibition of A23187-mediated (Ca2+-stimulated) cAMP accumulation in HEK cells stably expressing AC1
- Type: cell-based
- EXPERIMENTAL_CONTEXT: HEK293; 4 μM compound; read-out: AC1 Inhibition Percentage
Enter your answer as a number in %; do not include the unit.

**Q:** Find the recorded inhibition at 4 µM belonging to COc1ccc2c(c1)C(c1ccccc1)CN(C/C=C/c1ccc(C)cc1)CC2 (stereo not drawn) [Compound 7jb] and report it.
**A:** 43

**Q:** Find the recorded inhibition at 4 µM belonging to Clc1ccc(/C=C/CN(CCc2c[nH]c3ccccc23)Cc2ccccc2)cc1 [Compound 7af] and report it.
**A:** 30

**Q:** Find the recorded inhibition at 4 µM belonging to Ic1ccc(/C=C/CN(CCc2c[nH]c3ccccc23)Cc2ccccc2)cc1 [Compound 7ad] and report it.
**A:** 59

---

- TEST_TARGET: AC1 (Homo sapiens, UniProt Q08828)
- Construct: expressed in transfected cells
- MEASUREMENT_DESCRIPTION: Inhibition of A23187-mediated (Ca2+-stimulated) cAMP accumulation in HEK cells stably expressing AC1
- Format: cell-based
- EXPERIMENTAL_CONTEXT: HEK293; 4 μM compound; read-out: AC1 Inhibition Percentage
- Description: HEK cells stably expressing AC1 were treated with inhibitors for 30 min, and subsequently incubated with 3 μM A23187 in the presence of 2 mM IBMX. Data represent the average and S.E.M. of at least three independent experiments. A23187 is a Ca2+ ionophore, which promotes Ca2+ binding to calmodulin in the cells and, subsequent stimulation of AC1. […]
Give inhibition at 4 µM for every item shown.
Enter your answer as a number in %; do not include the unit.

**Q:** Find the recorded inhibition at 4 µM belonging to C(=C\c1ccccc1)/CN(CCc1c[nH]c2ccccc12)Cc1ccccc1 and report it.
**A:** 41

**Q:** Find the recorded inhibition at 4 µM belonging to Cc1ccc(/C=C/CN(CCc2c[nH]c3ccccc23)Cc2ccccc2)cc1 and report it.
**A:** 20

**Q:** Find the recorded inhibition at 4 µM belonging to COc1ccc2c(c1)C(c1ccccc1)CN(C/C=C/c1ccc(F)cc1)CC2 (stereo not shown) and report it.
**A:** 49

**Q:** Find the recorded inhibition at 4 µM belonging to Cc1cccc(/C=C/CN(CCc2c[nH]c3ccccc23)Cc2ccccc2)c1 and report it.
**A:** 18
